OD450 for assorted binders
- STUDY_TARGET: T1, Human CD19-his protein (human, UniProt P15391 20-291)
- T1 construct: bought protein; also called human CD19 protein; recombinant human CD19-His; not shown: His tag
- T1 sequence (looked up): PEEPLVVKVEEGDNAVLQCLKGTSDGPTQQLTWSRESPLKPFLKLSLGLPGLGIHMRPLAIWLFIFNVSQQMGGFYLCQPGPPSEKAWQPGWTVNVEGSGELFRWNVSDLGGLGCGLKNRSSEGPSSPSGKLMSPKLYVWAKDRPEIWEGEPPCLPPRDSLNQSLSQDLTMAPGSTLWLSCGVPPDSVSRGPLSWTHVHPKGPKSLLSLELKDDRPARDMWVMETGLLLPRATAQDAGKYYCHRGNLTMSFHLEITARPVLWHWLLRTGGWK
- EXPERIMENT: ELISA, antibody at 0.001 nM
Answer with a number only.

Examples from the recorded data:
F4.48.12 (antibody, human IgG1, V domains shown, human-murine chimeric antibody, human IgG1) VH: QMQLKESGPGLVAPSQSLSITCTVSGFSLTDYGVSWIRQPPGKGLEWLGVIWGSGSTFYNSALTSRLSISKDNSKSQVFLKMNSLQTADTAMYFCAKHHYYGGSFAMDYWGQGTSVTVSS VL: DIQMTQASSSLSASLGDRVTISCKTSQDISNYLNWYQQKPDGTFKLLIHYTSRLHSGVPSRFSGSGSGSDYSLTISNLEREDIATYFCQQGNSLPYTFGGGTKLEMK = 0.09
F4.145.9 (antibody, human IgG1, V domains shown, human-murine chimeric antibody, human IgG1) VH: EVQLVESGGGLVKPGGSLKLSCAAAGFAFSSYDMSWVRQIPEKRLEWVAYISAGGGNTYFLDTVKGRFTISRDHAKNTLSLQMSSLKSEDTAMYFCVRHGDYYRYFYAMDYWGQGSSVTVSS VL: DIVMTQSHKFMSTSVGDRVSITCKASQDVGTAVAWSQQKPGQSPKLLIYWASTRHTGVPDRFTGSGSGTDFTLTISNVQSEDLADYFCQQFVTYPYTFGGGTKLEIK = 0.08

Proceeding to the next binder to report its OD450.
Form: binder = F4.37.6 (antibody, human IgG1, V domains shown, human-murine chimeric antibody, human IgG1) VH: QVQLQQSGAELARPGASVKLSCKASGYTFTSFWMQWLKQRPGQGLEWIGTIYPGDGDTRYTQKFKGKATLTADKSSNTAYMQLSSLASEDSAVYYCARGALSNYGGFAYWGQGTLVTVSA VL: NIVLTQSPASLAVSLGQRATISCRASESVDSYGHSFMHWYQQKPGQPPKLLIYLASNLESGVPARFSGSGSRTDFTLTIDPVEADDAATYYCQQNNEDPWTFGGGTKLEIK ; OD450 = 0.09
